assayed-target: SARS-CoV-2 full length Spike protein, lineage B.1.1.7 (SARS-CoV-2)
observation-type: bead assay binding signal

{"binder": "antibody 1037 (antibody, V domains shown) VH: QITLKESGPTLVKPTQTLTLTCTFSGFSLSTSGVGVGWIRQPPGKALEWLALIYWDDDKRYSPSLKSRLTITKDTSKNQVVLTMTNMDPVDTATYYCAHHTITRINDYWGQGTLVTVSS VL: QSALTQPASVSGSPGQSITISCTATSSDVGAYNYVSWYQQHPGKAPKLMIYDVSKRPSGVSNRFSGSKSGNTASLTISGLQAEDEADYYCSSYTSSSTVFGGGTKLTVLG", "observation-type": "bead assay binding signal", "data-value": 749}
